Entries and their measured cytotoxicity at 10 µM follow.
Test: Toxicity liver stage against HepG2, at 10uM
Assay type: cell-based
Design: test concentration 10 uM, cell line HepG2-A16-CD81EGFP
Condition summary: human, HepG2-A16-CD81EGFP cells; read-out: INHIBITION

{"Molecule": "CN(C)[C@@H]1CCN(C(=O)Cc2cccs2)[C@H]1Cc1ccncc1", "Scale unit": "%", "cytotoxicity at 10 µM": -70.1}
{"Molecule": "Cc1cn(CC(=O)NC2CCN(S(C)(=O)=O)CC2)c2ccccc12", "Scale unit": "%", "cytotoxicity at 10 µM": 1.44}
{"Molecule": "CCNC(=O)N(C)C(c1ccccc1)c1ccccn1 (stereo unspecified)", "Scale unit": "%", "cytotoxicity at 10 µM": 1.52}
{"Molecule": "CNC(=O)c1cc2c(nc1NCC1CC1)CCN(c1ccncn1)CC2", "Scale unit": "%", "cytotoxicity at 10 µM": 3.17}
{"Molecule": "CN(CCc1ccccn1)[C@@H]1CCN(c2cc(C(N)=O)ccn2)C[C@H]1O", "Scale unit": "%", "cytotoxicity at 10 µM": -9.17}
{"Molecule": "Cc1[nH]ccc1C(=O)NCc1ncoc1C", "Scale unit": "%", "cytotoxicity at 10 µM": -2.45}
{"Molecule": "CC(NS(=O)(=O)N(C)C)c1cccc(-n2cccn2)c1 (stereo unspecified)", "Scale unit": "%", "cytotoxicity at 10 µM": -1.46}
{"Molecule": "O=C(c1ccc(C2CCCO2)s1)N1CCCOCC1 (stereo unspecified)", "Scale unit": "%", "cytotoxicity at 10 µM": -0.256}
{"Molecule": "CC(C)n1cc(CN2CCCN(C(=O)C3CCOC3)CC2)cn1 (stereo unspecified)", "Scale unit": "%", "cytotoxicity at 10 µM": -8.45}
{"Molecule": "CNC(=O)c1cc(-c2ccccc2OC)[nH]n1", "Scale unit": "%", "cytotoxicity at 10 µM": -2.77}
{"Molecule": "Cc1cnc(N2CC[C@@H]3OC(COCC(=O)N(C)C)CC[C@@H]32)nc1 (stereo partly specified)", "Scale unit": "%", "cytotoxicity at 10 µM": 7.98}

###

Test: Toxicity liver stage against HepG2, at 10uM
Type: cell-based
Set-up: test concentration 10 uM, cell line HepG2-A16-CD81EGFP
Condition summary: human, HepG2-A16-CD81EGFP cells; read-out: INHIBITION
Entries and their measured cytotoxicity at 10 µM follow.

{"Compound": "c1ccc(-c2ncc3c(n2)C2(CCN(CC4CC4)C2)COC3)cc1 (stereo not drawn)", "cytotoxicity at 10 µM / %": 0.975}
{"Compound": "CCN(c1ccsc1C(=O)N1CCCCC1)S(=O)(=O)c1ccccc1", "cytotoxicity at 10 µM / %": 9.78}
{"Compound": "Cn1c(N2CCOCC2)nc2cc(C(=O)N3CCC(O)(CO)C3)ccc21 (stereo not drawn)", "cytotoxicity at 10 µM / %": -4.62}
{"Compound": "CCn1cnc2c(cnn2-c2cccc(C)c2C)c1=O", "cytotoxicity at 10 µM / %": -17.9}
{"Compound": "COc1ccccc1OCCN1CCC(N2CCNC2=O)CC1", "cytotoxicity at 10 µM / %": -3.19}
{"Compound": "CCc1cnc(N2C[C@@H]3C[C@H](C(=O)N(C)C)[C@H](C2)O3)nc1", "cytotoxicity at 10 µM / %": -12.1}
{"Compound": "CCC(CO)N(Cc1ccccn1)C(=O)c1cccc(C#N)c1 (stereo not drawn)", "cytotoxicity at 10 µM / %": -3.67}
{"Compound": "CN(CCCc1nccn1C)C(=O)C1COc2ccccc2C1 (stereo not drawn)", "cytotoxicity at 10 µM / %": -9.1}
{"Compound": "CCN1Cc2cc(F)ccc2N(C(C)=O)CCC1=O", "cytotoxicity at 10 µM / %": -4.78}
{"Compound": "N#CCSCCCN1CCN(C(=O)c2ccccc2F)CC1", "cytotoxicity at 10 µM / %": -147}
{"Compound": "O=C(Nc1cccnc1)[C@H]1CN(Cc2ccccn2)C[C@H]2OCC[C@@H]12", "cytotoxicity at 10 µM / %": -107}
{"Compound": "Cc1nnc2n1CC(CNc1cnc3ccccc3n1)CC2 (stereo not drawn)", "cytotoxicity at 10 µM / %": -41.5}
{"Compound": "Cc1nn(C)c(C)c1OCC(=O)NCc1cccc(C(=O)O)c1", "cytotoxicity at 10 µM / %": -3.83}
{"Compound": "CC(C)(C)c1cnc(CN(Cc2cccnc2)CC2CCCO2)o1 (stereo not drawn)", "cytotoxicity at 10 µM / %": 5.82}
{"Compound": "Cc1noc(CCCC(=O)N2CCN(C)CC2c2ccccc2)n1 (stereo not drawn)", "cytotoxicity at 10 µM / %": -6.73}
{"Compound": "COc1ccccc1CNc1ncnc2c1NC(=O)CN2", "cytotoxicity at 10 µM / %": 11.3}
{"Compound": "CN(C)[C@@H]1CCN(c2ncc(F)cn2)[C@H]1Cc1cccnc1", "cytotoxicity at 10 µM / %": 2.53}
{"Compound": "Cc1nc(Cn2c3c(ccc2=O)CCN(CC2CC2)CC3)cs1", "cytotoxicity at 10 µM / %": 1.63}
{"Compound": "Cn1ccnc1CN1CCC2(CCC(=O)N2CCN2CCCC2)CC1", "cytotoxicity at 10 µM / %": -0.171}
{"Compound": "O=C(C1CCCCC1)N1CCCC2(CCN(c3cnccn3)CC2)C1", "cytotoxicity at 10 µM / %": 6.59}
{"Compound": "Cc1ccc(OCC2CCCN(C(=O)Cn3ccccc3=O)C2)cc1 (stereo not drawn)", "cytotoxicity at 10 µM / %": 0.55}
{"Compound": "COC(=O)c1ccc(N2CCN(CCC(=O)NC(N)=O)C(C)C2)cc1 (stereo not drawn)", "cytotoxicity at 10 µM / %": -6.39}
{"Compound": "COc1ccc2[nH]c(C(=O)NCC3(N)CCCC3)cc2c1", "cytotoxicity at 10 µM / %": 4.3}
{"Compound": "CCc1ccc2nc(C)cc(C(=O)N[C@@H]3C[C@@H](CO)N(C)C3)c2c1", "cytotoxicity at 10 µM / %": 2.35}
{"Compound": "COC1CCCN(C(=O)Nc2nc(C)n(C)n2)C1 (stereo not drawn)", "cytotoxicity at 10 µM / %": 16.3}
{"Compound": "O=C(NCCC1CCN(CC(F)(F)F)CC1)C1COCCO1 (stereo not drawn)", "cytotoxicity at 10 µM / %": 1.38}
{"Compound": "CCNC(=O)NC(=O)CN1CCOC(c2cccc(Br)c2)C1 (stereo not drawn)", "cytotoxicity at 10 µM / %": 1.83}
{"Compound": "CCn1nc(C)c(CCNC(=O)C2CCCN(C(=O)COC)C2)c1C (stereo not drawn)", "cytotoxicity at 10 µM / %": -0.367}
{"Compound": "CCc1ccc(C2CC(=O)Nc3cc(NS(C)(=O)=O)ccc32)o1 (stereo not drawn)", "cytotoxicity at 10 µM / %": 86}
{"Compound": "Cc1cnn(CC2CCCN2C(=O)c2ccc3[nH]nnc3c2)c1 (stereo not drawn)", "cytotoxicity at 10 µM / %": 1.03}
{"Compound": "O=C([C@H]1C[C@H]2OCC[C@H]2N(Cc2ccccc2F)C1)N1CCCCO1", "cytotoxicity at 10 µM / %": -72.2}
{"Compound": "CCOc1cc(C)nc(N2CCN(Cc3nccn3CC)CC2)n1", "cytotoxicity at 10 µM / %": -3.81}
{"Compound": "COc1ccc(F)cc1S(=O)(=O)N1CCC(OC)CC1", "cytotoxicity at 10 µM / %": -3.97}
{"Compound": "O=C(Nc1cc(F)ccc1OCC1CCCO1)c1ccc(O)nc1 (stereo not drawn)", "cytotoxicity at 10 µM / %": -2.91}
{"Compound": "O=C(CCOc1ccc(F)cc1)N1CCCC1Cn1cccn1 (stereo not drawn)", "cytotoxicity at 10 µM / %": -2.7}
{"Compound": "O=C1CSC(c2ccc3c(c2)OCO3)c2cn[nH]c2N1 (stereo not drawn)", "cytotoxicity at 10 µM / %": 4.29}
{"Compound": "O=C(CN1CCCC(c2ccn[nH]2)C1)N1CCCc2ccccc21 (stereo not drawn)", "cytotoxicity at 10 µM / %": -3.41}
{"Compound": "Cc1cccc(=O)n1CCC(=O)N1CC[C@](C)(O)[C@H](C)C1", "cytotoxicity at 10 µM / %": 2.81}
{"Compound": "CC(OCC1CC1)C(=O)N1CCCN(Cc2cscn2)CC1 (stereo not drawn)", "cytotoxicity at 10 µM / %": -5.16}
{"Compound": "COCCNc1nc2c(c(N3CCn4nc(C)cc4C3)n1)CCNCC2", "cytotoxicity at 10 µM / %": 7.8}
{"Compound": "Cc1cnn(CCNCc2csc(-c3ccc(C)o3)n2)c1", "cytotoxicity at 10 µM / %": -1.64}
{"Compound": "COc1ccccc1/C=C/CNCC1CCc2nncn2C1 (stereo not drawn)", "cytotoxicity at 10 µM / %": 3.91}
{"Compound": "c1ccc2oc(CN3CCOC(Cn4cccn4)C3)nc2c1 (stereo not drawn)", "cytotoxicity at 10 µM / %": -18.2}
{"Compound": "COCCN(Cc1ccc(C)o1)C(=O)Nc1nnc2ccccn12", "cytotoxicity at 10 µM / %": -1.59}
{"Compound": "CN(C)CCOCC1CN(C(=O)c2cccn2C)Cc2ccnn2C1 (stereo not drawn)", "cytotoxicity at 10 µM / %": 13.5}
{"Compound": "CN(C)C(=O)c1cccc(C2CNCCN2C)c1 (stereo not drawn)", "cytotoxicity at 10 µM / %": -3.15}
{"Compound": "Cc1cc(C)n(C2CN(CC(O)c3ccc4c(c3)OCO4)C2)n1 (stereo not drawn)", "cytotoxicity at 10 µM / %": -15.7}
{"Compound": "CCn1nc(C)c2nc(C)nc(NCCc3ccc(C)cc3)c21", "cytotoxicity at 10 µM / %": 50.9}
